Recorded values, source patent US7998940B2.

Tested on: full length human vWF
Assay: 3-point dot blot screen, full length human vWF
Format: binding
Conditions: 20 nM full length human vWF, ratio of fraction of aptamer bound with target protein to fraction bound without protein
metric: Screen- Human/No Protein
Form field (numeric): enter value without unit.

[in] Field request: Screen- Human/No Protein | item: AMX237.B4: DNA SELEX 2 aptamer clone (nucleic acid, DNA, backbone not given here, DNA SELEX 2 aptamer clone) DNA: CTACCTACGATCTGACTAGCTCCAGTGTTTCATCCAATAACCGTGCGGTGCTTCCGTGAGCTTACTCTCATGTAGTTCC
[out] 1.42

[in] Now consider AMX238.F3: DNA SELEX 2 aptamer clone (nucleic acid, DNA, backbone not given here, DNA SELEX 2 aptamer clone) DNA: CTACCTACGATCTGACTAGCGTGCAGTGCCTATTTTAGGTCGTGCGGGGCCTCCGTCACGCTTACTCTCATGTAGTTCC .
[out] 2.83

[in] Continue with AMX238.G6: DNA SELEX 2 aptamer clone (nucleic acid, DNA, backbone not given here, DNA SELEX 2 aptamer clone) DNA: CTACCTACGATCTGACTAGCTCCAGTGTTTTATCCAATAACCGTGCGGGGCCTCCGTGATGCTTACTCTCATGTAGTTCC
[out] 1.25

[in] Another: AMX236.B3: DNA SELEX 2 aptamer clone (nucleic acid, DNA, backbone not given here, DNA SELEX 2 aptamer clone) CTACCTACGATCTGACTAGCCTTACCTATTCCCTTCTGCGGAATACGTCGAGTACTATGCTTACTCTCATGTAGTTCC
[out] 1.54

[in] Consider next the molecule AMX238.D9: DNA SELEX 2 aptamer clone (nucleic acid, DNA, backbone not given here, DNA SELEX 2 aptamer clone) DNA: CTACCTACGATCTGACTAGCCAGTTCTGGGAAAAATCATTTTTTATTTCGATCGTATTTGCTTACTCTCATGTAGTTCC in the same way.
[out] 1.22

[in] Now consider AMX238.H9: DNA SELEX 2 aptamer clone (nucleic acid, DNA, backbone not given here, DNA SELEX 2 aptamer clone) DNA: CTACCTACGATCTGACTAGCTTGTCGCACTTTTGGTTGGTCTGGTTGGTTTTAAGTGCGCTTACTCTCATGTAGTTCC .
[out] 1.11

[in] Another molecule: AMX238.H11: DNA SELEX 2 aptamer clone (nucleic acid, DNA, backbone not given here, DNA SELEX 2 aptamer clone) DNA: CTACCTACGATCTGACTAGCTTTCAGTCTTTCACATTTATAGGGTTTGGCATTGGGTCTGGCTTACTCTCATGTAGTTCC
[out] 0.98

[in] And then AMX238.A6: DNA SELEX 2 aptamer clone (nucleic acid, DNA, backbone not given here, DNA SELEX 2 aptamer clone) DNA: CTACCTACGATCTGACTAGCGGAATGAGAATGCAGATGGATTGCTCAGGTCTGCTGGCTGCTTACTCTCATGTAGTTCC , what is it?
[out] 0.92

[in] How about AMX238.D12: DNA SELEX 2 aptamer clone (nucleic acid, DNA, backbone and methylation of C not given here, DNA SELEX 2 aptamer clone) DNA: CTACCTACGATCTGACTAGCTCCAGTGTTTCATTCAATAACCGTGCGGTGCCTCCGTGAGCTTACTCTCATGTAGTTCC ?
[out] 2.40

[in] Also check AMX237.H5: DNA SELEX 2 aptamer clone (nucleic acid, DNA, backbone not given here, DNA SELEX 2 aptamer clone) DNA: CTACCTACGATCTGACTAGCTCCAGTGTTTCATTTAATAACCGTGCGGTGCCTCCGTGAGCTTACTCTCATGTAGTTCC
[out] 1.63
